- TEST_METHOD_NOTES: Aqueous solubility of the compound in physiological saline measured after 12 hrs by UV spectrophotometric analysis
- Type: physicochemical
PROPERTY_LABEL: solubility at 12 h
Put down the number, then write its unit next to it.

- MOL: "C=C[C@]1(C)C[C@@H](OC(=O)CSc2nc(-c3cc[n+](Cc4ccc5ccccc5c4)cc3)cs2)[C@]2(C)[C@H](C)CC[C@]3(CCC(=O)[C@H]32)[C@@H](C)[C@@H]1O.[Br-]"
  RESULT: "483 µM"
- MOL: "C=C[C@]1(C)C[C@@H](OC(=O)CSc2nc(-c3cc[n+](Cc4ccc(OC)cc4)cc3)cs2)[C@]2(C)[C@H](C)CC[C@]3(CCC(=O)[C@H]32)[C@@H](C)[C@@H]1O.[Br-]"
  RESULT: "653 µM"

// below: solubility at 12 h requested for another molecule
Quick check: solubility at 12 h of C=C[C@]1(C)C[C@@H](OC(=O)CSc2nc(-c3cc[n+](Cc4cc(OC)cc(OC)c4)cc3)cs2)[C@]2(C)[C@H](C)CC[C@]3(CCC(=O)[C@H]32)[C@@H](C)[C@@H]1O.[Br-] ? 912 µM

----------
- TEST_METHOD_NOTES: Cytotoxicity against human HEK293 cells assessed as reduction in cell viability measured after 48 hrs by CCK8 assay
- Assay type: toxicity, cell-based
For each of the compounds below, state its CC50 at 48 h.
One number for each entry, in µM.

Solved cases (2 shown):
- COMPOUND: "C=C[C@]1(C)C[C@@H](OC(=O)CSC(C)(C)CNC(=O)[C@H](N)C(C)C)[C@]2(C)[C@H](C)CC[C@]3(CCC(=O)[C@H]32)[C@@H](C)[C@@H]1O [VALNEMULIN]"
  CC50 at 48 h / µM: 65.4
- COMPOUND: "Br.C=C[C@]1(C)C[C@@H](OC(=O)CSc2nc(-c3cc[n+](Cc4ccc([N+](=O)[O-])cc4)cc3)cs2)[C@]2(C)[C@H](C)CC[C@]3(CCC(=O)[C@H]32)[C@@H](C)[C@@H]1O"
  CC50 at 48 h / µM: 86.7

I would be grateful if you could provide CC50 at 48 h for each of the following entries.
1. C=C[C@]1(C)C[C@@H](OC(=O)CSc2nc(-c3cc[n+](Cc4ccc(OC)cc4)cc3)cs2)[C@]2(C)[C@H](C)CC[C@]3(CCC(=O)[C@H]32)[C@@H](C)[C@@H]1O.[Br-]
2. C=C[C@]1(C)C[C@@H](OC(=O)CS[C@@H]2C[C@H]3CC[C@@H](C2)N3C)[C@]2(C)[C@H](C)CC[C@]3(CCC(=O)[C@H]32)[C@@H](C)[C@@H]1O [RETAPAMULIN]

1: 95.4; 2: 83.8

----------
- TEST_METHOD_NOTES: MRT in Sprague-Dawley rat at 1 mg/kg, iv by LC-MS analysis
- Format: ADME, organism-based
- CONDITIONS_USED: in vivo
PROPERTY_LABEL: MRT (min)
One number for each entry, in min.

Endpoint output: MRT of C=C[C@]1(C)C[C@@H](OC(=O)CSc2nc(-c3cc[n+](Cc4ccc(C)cc4)cc3)cs2)[C@]2(C)[C@H](C)CC[C@]3(CCC(=O)[C@H]32)[C@@H](C)[C@@H]1O.[Br-] . Value? 34.8
